Tested on: MALME-3M melanoma
Assay comment: NCI tumour cell line growth inhibition, 48 h
For each entry below, report its TGI value.

{"columns": ["Compound", "Tested on", "Readout", "Value reported"],
 "data": [
  ["COC(C)(C)/C=C/c1[nH]c2ccccc2c1CC(=O)NCCc1cn(C(c2ccccc2)(c2ccccc2)c2ccccc2)cn1", "MALME-3M melanoma", "TGI", "11.7 µM"]
]}

Return reported TGI values for all items listed beneath this line.
1. C=CCOC(=O)C1=C(C)NC2=N[C@H](CCCCCCCCC)C[C@@H]3CCC1N23 (stereo not given in full)
2. Cn1cc2ccccc2c1-c1nc(F)nc(Oc2ccc3c(c2)CC[C@@H]2C3CC[C@@]3(C)C2C[C@H](O)[C@@H]3O)n1 (stereo not given in full)
3. Cc1cc(C)c(-c2noc(-c3ccc(Cl)cc3)c2C2=NCCCN2)c(C)c1
4. Nc1ccccc1C(=O)CCC1C(=O)NC(=S)NC1=O
5. CN1CCN(C(=O)COc2ccc(/C=C3\CC4C5CC=C6CC(Cl)CCC6(C)C5CCC4(C)C3=O)cc2)CC1 (stereo not given)
6. CCC1(c2ccc(N3C(=O)c4cc(OC)c(OC)cc4C3=O)cc2)CCC(=O)NC1=O (stereo not given)

1: 35.7 µM; 2: 75.4 µM; 3: 36.8 µM; 4: > 100 µM; 5: > 100 µM; 6: > 10 µM

---

For each entry below, report its TGI value.
System: HCC-2998 colon
Assay comment: NCI tumour cell line growth inhibition, 48 h

// worked examples, TGI included
{"columns": ["Molecule", "Tested on", "TGI"],
 "data": [
  ["Nc1nc(NCCCO)cc(=O)[nH]1", "HCC-2998 colon", "> 100 µM"],
  ["CC(C)COc1nc2c(c(=O)n(C)c(=O)n2C)n1C", "HCC-2998 colon", "> 100 µM"],
  ["CCN(CC)CCN(C)c1ccc(CO)c2c1C(=O)c1ccccc1S2=O (centres undefined)", "HCC-2998 colon", "2.99 µM"],
  ["CC(=O)NCC1OC2COC(c3ccccc3)OC2C(NC(=O)c2ccccc2)C1OC(=O)c1ccccc1 (centres undefined)", "HCC-2998 colon", "> 100 µM"],
  ["Cc1ccc2c(=O)cc(-c3ccc4ccccc4c3)[nH]c2n1", "HCC-2998 colon", "68.6 µM"],
  ["Cc1cn(Cc2ccc(C34CC5CC(CC(C5)C3)C4)c(O)c2)c(=O)[nH]c1=O", "HCC-2998 colon", "21.4 µM"],
  ["CCCCCc1c(CCCC)c(=O)[nH]c2nc(NC(=O)CCCC)ccc12", "HCC-2998 colon", "> 100 µM"],
  ["OC(CN(CCCl)CCCl)C(O)C(O)C(O)CN(CCCl)CCCl (centres undefined)", "HCC-2998 colon", "> 100 µM"],
  ["NC1CCC(N(CC(=O)O)CC(=O)O)C(N(CC(=O)O)CC(=O)O)C1 (centres undefined)", "HCC-2998 colon", "> 100 µM"],
  ["Cc1cc(=O)oc2cc(OCC(O)COC(C)C)ccc12 (centres undefined)", "HCC-2998 colon", "> 100 µM"]
]}

Return reported TGI values for all items listed beneath this line.
1. CCNC(=O)OCc1c(COC(=O)NCC)c(-c2ccc(Cl)c(Cl)c2)n2c1CCC2
2. CC(=O)N1N=C(c2ccc(Nc3nc(Nc4ccc(F)cc4)nc(Nc4ccc(F)cc4)n3)cc2)CC1c1ccc(N(C)C)cc1 (centres undefined)

27.7 µM
> 100 µM
